biological target: AMP-activated protein kinase, AMPK (Homo sapiens) (UniProt P54646+O43741+P54619+Q9UGJ0+Q9Y478+Q13131+Q9UGI9); experiment: AMP-dependent Kinase enzyme assay. An in vitro enzyme assay that detects ADP turnover that is directly proportional to AMPK activity. This uses naive AMPK that is activated during the assay with MK-8722; assay type: functional; design: scale not given: direction of the effect not stated beside the values; conditions: 30 µM
Here the recorded Percent Effect is given for each entry.
Supply the numeric figure in %, leaving out any unit text.

Study these solved cases before continuing.
[[record]]
molecule = "O=C(NCc1ccccc1F)N1CCC(C2OCCO2)CC1"
value_observed = -0.484

[[record]]
molecule = "CN(C)C(=O)N1CCN(CCn2nc3ccccn3c2=O)CC1"
value_observed = 0.915

[[record]]
molecule = "CCOc1ccnc(N2CCN(C(=O)c3cccnc3O)CC2)n1"
value_observed = -4.02

[[record]]
molecule = "O=C(NS(=O)(=O)c1ccccc1Cl)c1cccc2c1OCCO2"
value_observed = -3.79

[[record]]
molecule = "Cc1nn(C)c(C)c1C1CCCN1C(=O)c1ccc(CN(C)C)cc1 (stereo not drawn)"
value_observed = 2.25


Query: What value of Percent Effect has been recorded for this entry: Cc1nc(-c2ccc(Cl)s2)sc1C(=O)NCCS(N)(=O)=O
Result: 20

Query: What value of Percent Effect has been recorded for this entry: CCS(=O)(=O)N1CCC[C@]2(C(=O)N(C)C)CN(c3ccccn3)C[C@@H]2C1
Result: 2.98

Query: What value of Percent Effect has been recorded for this entry: Cc1[nH]ccc1C(=O)Nc1cccc(CN2CCC(O)CC2)c1
Result: -2.05

Query: What value of Percent Effect has been recorded for this entry: CN1CCN(Cc2ccccc2CNC(=O)c2ccc(Br)cc2)CC1
Result: -2.99

Query: What value of Percent Effect has been recorded for this entry: O=S(=O)(Cc1ccccc1)N1CCCn2cnc(CN3CCCC3)c2C1
Result: 20.1

====

organism: Homo sapiens; assay: To identify inhibition of the IFN signalling (Jak-Stat) pathway via expression of an eGFP reporter gene under the control of an IFN-stimulated response element (ISRE) containing MxA promoter.; format: functional; parameters: scale not given: direction of the effect not stated beside the values; details: 30 µM
assay.endpoint: Percent Effect
Kindly report the value followed by its unit.

Study these solved cases before continuing.
[[record]]
compound = "O=C1CC[C@H]2[C@H](CCN2C(=O)C2CCOCC2)N1Cc1ccncc1"
value_observed = "-2.05%"

[[record]]
compound = "CN(Cc1csc(-c2cccs2)n1)C(=O)CCn1ccccc1=O"
value_observed = "10.8%"


Query: What value of Percent Effect has been recorded for this entry: CC(OCC(F)(F)F)C(=O)Nc1ccc(-n2cncn2)nc1 (centres undefined)
Result: 22.3%

Query: What value of Percent Effect has been recorded for this entry: CSc1ncccc1C(=O)NCc1ccc(CS(=O)(=O)NC(C)C)cc1
Result: 21.4%

Query: What value of Percent Effect has been recorded for this entry: Cc1cnn(C2CN(CC(=O)NCc3ccccn3)C2)c1
Result: -8.2%

Query: What value of Percent Effect has been recorded for this entry: CNC(=O)C(C)(C)NC(=O)c1cc(OCC2CCC2)cc(C(=O)OC)c1
Result: 31.3%

Query: What value of Percent Effect has been recorded for this entry: Cc1cc(CNC(=O)N2CCN(c3ccccc3)CC2)no1
Result: -2.92%

Query: What value of Percent Effect has been recorded for this entry: O=C(NCCN1CCOCC1)c1ccc(-n2ccc3ccccc32)s1
Result: 28.5%

Query: What value of Percent Effect has been recorded for this entry: COCCN1CCC(NC(=O)C2(c3cc(C)cc(C)c3)CC2)CC1
Result: -10.6%

Query: What value of Percent Effect has been recorded for this entry: CC(Cc1ccco1)NC(=O)Nc1ccc(N2CCOCC2)nc1 (centres undefined)
Result: -9.28%

Query: What value of Percent Effect has been recorded for this entry: CCN1CCN(C(=O)c2ccn(C)c(=O)c2)CC1
Result: 21.1%

Query: What value of Percent Effect has been recorded for this entry: CCN1CCn2c(C)cnc2C12CCN(C(=O)CC(C)C)CC2
Result: 1.06%

Query: What value of Percent Effect has been recorded for this entry: Cn1ncc2c(=O)[nH]c(CN(Cc3cccc(F)c3)C3CC3)nc21
Result: -5.95%

Query: What value of Percent Effect has been recorded for this entry: CCn1ccnc1CN1CCOC(CNc2cccnn2)C1 (centres undefined)
Result: 17.5%

Query: What value of Percent Effect has been recorded for this entry: CCc1nsc(NC2CCCn3nc(CC)nc32)n1 (centres undefined)
Result: 0.363%

Query: What value of Percent Effect has been recorded for this entry: CCS(=O)(=O)N1CCC(c2nnc(CN3CCCC3)n2C2CC2)CC1
Result: 19.7%

Query: What value of Percent Effect has been recorded for this entry: Cc1ncc2c(n1)CCCC2NC(=O)c1ccncc1 (centres undefined)
Result: 0.503%

Query: What value of Percent Effect has been recorded for this entry: Cn1cc(CN2C[C@@H]3COC[C@@H](C(=O)N4CCCCO4)[C@@H]3C2)cn1
Result: 3.52%

Query: What value of Percent Effect has been recorded for this entry: NC(=O)C1CN(C(=O)Nc2cc(Cl)cc(Cl)c2)CCO1 (centres undefined)
Result: 22.7%

====

Here the recorded Percent Effect is given for each entry.
molecular target: Tyrosyl-tRNA synthetase, putative (Trypanosoma cruzi (strain CL Brener)); test: Trypanosoma cruzi tyrosyl tRNA synthetase (TcYRS) SOP; type: functional; parameters: scale not given: direction of the effect not stated beside the values; conditions: 30 µM
Kindly report the value followed by its unit.

Query: Provide the documented Percent Effect with Tyrosyl-tRNA synthetase, putative (Trypanosoma cruzi (strain CL Brener)) as the system for CCc1nc(CC(=O)N2CCOCC2c2ncon2)cs1 (stereo not drawn)
Result: -1.22%

Query: Provide the documented Percent Effect with Tyrosyl-tRNA synthetase, putative (Trypanosoma cruzi (strain CL Brener)) as the system for NC[C@H]1CC[C@H](C(NC(=O)c2cccc(F)c2)c2ccccn2)CC1 (stereo partly drawn)
Result: 45%

Query: Provide the documented Percent Effect with Tyrosyl-tRNA synthetase, putative (Trypanosoma cruzi (strain CL Brener)) as the system for COc1cccc(N2CCN(CCC(=O)NC3CCCC3)CC2)c1
Result: 13%

Query: Provide the documented Percent Effect with Tyrosyl-tRNA synthetase, putative (Trypanosoma cruzi (strain CL Brener)) as the system for CCCc1cc(NC2CCc3ncnn3C2)n2ncnc2n1 (stereo not drawn)
Result: 7.5%

Query: Provide the documented Percent Effect with Tyrosyl-tRNA synthetase, putative (Trypanosoma cruzi (strain CL Brener)) as the system for Cc1cc(C)cc(-c2ccc(CC3(C(=O)O)CCOCC3)cc2)c1
Result: -37.7%

Query: Provide the documented Percent Effect with Tyrosyl-tRNA synthetase, putative (Trypanosoma cruzi (strain CL Brener)) as the system for Cn1cc(CCNC(=O)NC2CCS(=O)(=O)C2)cn1 (stereo not drawn)
Result: 5.13%

====

target: Sialic acid-binding Ig-like lectin 9 (Homo sapiens) (UniProt Q9Y336); experiment: Hs-Siglec9 ALPHAscreen SOP 20170721; set-up: scale not given: direction of the effect not stated beside the values; conditions: 10 µM
Sequence (Q9Y336 whole entry): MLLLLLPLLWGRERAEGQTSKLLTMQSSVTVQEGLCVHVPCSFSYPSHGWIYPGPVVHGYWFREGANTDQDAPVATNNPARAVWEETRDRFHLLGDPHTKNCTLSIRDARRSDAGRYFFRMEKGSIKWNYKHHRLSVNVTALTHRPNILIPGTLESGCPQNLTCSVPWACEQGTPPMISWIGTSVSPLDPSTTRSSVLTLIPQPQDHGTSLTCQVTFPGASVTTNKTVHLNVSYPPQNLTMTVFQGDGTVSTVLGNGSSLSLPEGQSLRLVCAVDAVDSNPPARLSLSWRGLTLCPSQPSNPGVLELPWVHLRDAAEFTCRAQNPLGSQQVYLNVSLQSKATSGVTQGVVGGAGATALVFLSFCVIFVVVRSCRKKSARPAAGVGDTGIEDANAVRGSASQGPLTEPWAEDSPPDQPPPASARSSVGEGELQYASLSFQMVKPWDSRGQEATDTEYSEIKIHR
assay.endpoint: Percent Effect (%)
Supply the numeric figure in %, leaving out any unit text.

Study these solved cases before continuing.
[[record]]
compound = "CC(C)c1ncc2c(n1)CN(Cc1cccc(C#N)c1)CC2"
measurement_target = "Sialic acid-binding Ig-like lectin 9 (Homo sapiens) (UniProt Q9Y336)"
assay_endpoint = "Percent Effect"
value_observed = 8.37

[[record]]
compound = "N#Cc1ccnc(N2CCC(c3nccn3Cc3cscn3)CC2)c1"
measurement_target = "Sialic acid-binding Ig-like lectin 9 (Homo sapiens) (UniProt Q9Y336)"
assay_endpoint = "Percent Effect"
value_observed = 5.36

[[record]]
compound = "COc1ccc(Cl)cc1C(=O)N1CCCC(n2nc(C)nc2C)C1 (centres undefined)"
measurement_target = "Sialic acid-binding Ig-like lectin 9 (Homo sapiens) (UniProt Q9Y336)"
assay_endpoint = "Percent Effect"
value_observed = -8.91

[[record]]
compound = "Cc1cnn(CC2CCCN2CC(=O)N(C)Cc2ccc(C)o2)c1 (centres undefined)"
measurement_target = "Sialic acid-binding Ig-like lectin 9 (Homo sapiens) (UniProt Q9Y336)"
assay_endpoint = "Percent Effect"
value_observed = 2.25

[[record]]
compound = "COCC(NC(=O)c1cc[nH]n1)c1cccc(C(F)(F)F)c1 (centres undefined)"
measurement_target = "Sialic acid-binding Ig-like lectin 9 (Homo sapiens) (UniProt Q9Y336)"
assay_endpoint = "Percent Effect"
value_observed = 16


Query: What value of Percent Effect has been recorded for this entry: CC(C)c1nc(C2CCCN2CCc2ccncc2)no1 (centres undefined)
Result: -0.839

Query: What value of Percent Effect has been recorded for this entry: CS(=O)(=O)CCC(=O)NC1(c2cccc(Br)c2)CC1
Result: 18.2

Query: What value of Percent Effect has been recorded for this entry: CC(C)S(=O)(=O)NCC1CCCN(C(=O)c2ccc3c(c2)CCC3)C1 (centres undefined)
Result: -5.74

Query: What value of Percent Effect has been recorded for this entry: CC(C)N(C)Cc1nnc2n1CCCN(C(=O)c1ccco1)C2
Result: 2.67
